Assay: qHTS Assay for Lipid Storage Modulators (AID 1519); note: % is set by controls: 0 for no effect and ±100 for the full control effect
Details: Drosophila S3 cells, BODIPY lipid droplet/cell ratio, laser cytometry; at 57.5 µM (top of the series); cells loaded with oleic acid
Results filed as inconclusive are left out.
Quick list: activity change, negative = inhibition per entry.
Enter your answer as a number in %; do not include the unit.

Take a look at these entries with their results.
compound: O=C1c2cccc(O)c2C(=O)c2c(O)cccc21
activity change, negative = inhibition [%]: -5.01

compound: C[n+]1ccccc1/C=N/O
activity change, negative = inhibition [%]: 6.44

compound: C[C@@H](N)C(=O)O
activity change, negative = inhibition [%]: -5.25

Using known records, supply activity change, negative = inhibition for `O=C(Cn1ccnc1[N+](=O)[O-])NCCO`
2.99

Using known records, supply activity change, negative = inhibition for `Cc1cc(C)nc(NS(=O)(=O)c2ccc(N)cc2)n1`
8.29

Using known records, supply activity change, negative = inhibition for CC1CCc2cc(F)cc3c(=O)c(C(=O)O)cn1c23 (stereo unspecified)
6.51

----------
Biological target: ATP-dependent 6-phosphofructokinase (Trypanosoma brucei brucei)
Test: qHTS Assay to Find Inhibitors of T. brucei phosphofructokinase: hit validation (AID 492961);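 note: luminescence reports ADP formed as PFK phosphorylates fructose-6-phosphate with ATP; % is set by controls: 0 for no effect and ±100 for the full control effect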
Settings: T. brucei PFK, ADP-Glo luminescence; series mostly up to 51.4 µM
Records with an inconclusive call do not appear. Calls of active or inactive are those of the source. Calls come from the whole dose curve; as a rule, active = well fitted inhibition curve with a large enough effect; inconclusive = small, poorly fitted or top-dose-only effect, or effect the other way; inactive = flat fitted curve, though single readings scatter.
attribute-measured: outcome

Take a look at these entries with their results.
compound: COC(=O)c1cccnc1
tested-on: ATP-dependent 6-phosphofructokinase (Trypanosoma brucei brucei)
reported-value: inactive

compound: NCC1CCC(C(=O)Oc2ccc(CCC(=O)O)cc2)CC1 (configuration not stated)
tested-on: ATP-dependent 6-phosphofructokinase (Trypanosoma brucei brucei)
reported-value: inactive

compound: CC(CSC(=O)c1ccccc1)C(=O)N1C[C@@H](Sc2ccccc2)C[C@H]1C(=O)O (some centres not stated)
tested-on: ATP-dependent 6-phosphofructokinase (Trypanosoma brucei brucei)
reported-value: inactive

compound: O=C(O)CNC(=O)c1ccccc1I
tested-on: ATP-dependent 6-phosphofructokinase (Trypanosoma brucei brucei)
reported-value: inactive

compound: CCCCCC(C)N (configuration not stated)
tested-on: ATP-dependent 6-phosphofructokinase (Trypanosoma brucei brucei)
reported-value: inactive

Using known records, supply outcome for `CC(=O)SC[C@@H](Cc1ccccc1)C(=O)NCC(=O)OCc1ccccc1`
inactive

Using known records, supply outcome for `CCCCCCCCCCCCCCCCN`
inactive

----------
Test: qHTS of pediatric cancer cell lines to identify multiple opportunities for drug repurposing: Primary screen for DAOY cells (AID 1347090);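 note: plate controls were DMSO for no effect and bortezomib for full effect; nearly all actives have a fitted effect of over 55% in size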
Conditions: DAOY medulloblastoma viability, CellTiter-Glo luminescence, 48 h; series mostly up to 46 µM
Results filed as inconclusive are left out. Activity calls are given as the source filed them. The call rests on the fitted dose curve; in most records, active means well fitted cell-killing curve with a large enough effect; inconclusive means small, poorly fitted or top-dose-only effect; inactive means flat fitted curve, though single readings scatter.
attribute-measured: activity change, negative = cytotoxic

Take a look at these entries with their results.
compound: NS(=O)(=O)c1cc(C2(O)NC(=O)c3ccccc32)ccc1Cl (configuration not stated)
activity change, negative = cytotoxic: inactive

compound: O=S1(=O)OC(c2ccc(O)cc2)(c2ccc(O)cc2)c2ccccc21
activity change, negative = cytotoxic: inactive

compound: O=C1C(c2[nH]c3ccccc3c2O)=Nc2ccccc21
activity change, negative = cytotoxic: inactive

compound: CC(=O)Nc1cccc(O)c1
activity change, negative = cytotoxic: inactive

compound: C/C=C/C(=O)N(CC)c1ccccc1C
activity change, negative = cytotoxic: inactive

compound: O=C(NCN1CCOCC1)c1cnccn1
activity change, negative = cytotoxic: inactive

Okay, now this compound:
Using known records, supply activity change, negative = cytotoxic for CC1(c2ccccc2)OC(C(=O)O)=CC1=O (configuration not stated)
inactive

----------
Experiment: qHTS drug screen for cell cycle checkpoint inhibitors in PARPi-resistant BRCA-mutant ovarian cancer cell lines. (AID 1963452)
Settings: PEO1/OlaR viability, CellTiter-Glo luminescence, 96 h; measured here: PEO4 Z-AUC; stronger effect = lower value
So basically: is Z-AUC under 1? Then true (1). Not under? Then false (0).

In the record for `C/C=C/C(=O)N(CC)c1ccccc1C` , is Z-AUC less than 1?
true (1)

In the record for `CCOC(=O)[C@H](CCc1ccccc1)N[C@@H](C)C(=O)N1CCC[C@H]1C(=O)O` , is Z-AUC less than 1?
true (1)

In the record for `O=c1[nH]c(=O)n([C@H]2C[C@H](O)[C@@H](CO)O2)cc1I` , is Z-AUC less than 1?
true (1)

In the record for `OCCN1C[C@H](O)[C@@H](O)[C@H](O)[C@H]1CO` , is Z-AUC less than 1?
false (0)

----------
Tested on: MKL-1
Assay: qHTS assay to identify novel small-molecules to repurpose for Merkel cell carcinoma treatment (AID 1296009); note: % is set by controls: 0 for no effect and ±100 for the full control effect; nearly all actives have a fitted effect of over 60% in size
Conditions: MCC and control cell lines, CellTiter-Glo viability, 72 h; series mostly up to 46 µM
Records with an inconclusive call do not appear. Activity calls are given as the source filed them. Calls come from the whole dose curve; as a rule, active = well fitted inhibition curve with a large enough effect; inconclusive = small, poorly fitted or top-dose-only effect; inactive = flat fitted curve, though single readings scatter.
attribute-measured: activity change, negative = cytotoxicity

Take a look at these entries with their results.
molecule: CC[C@]12CCCN3CCc4c(n(c5ccccc45)[C@@](O)(C(=O)OC)C1)[C@@H]32
activity change, negative = cytotoxicity: inactive
//
molecule: CC(=O)N[C@@H](Cc1ccc(O)cc1)C(=O)O
activity change, negative = cytotoxicity: inactive
//
molecule: C[C@@H](c1ncncc1F)C(O)(Cn1cncn1)c1ccc(F)cc1F (stereo partly specified)
activity change, negative = cytotoxicity: inactive
//
molecule: O=C1C(c2[nH]c3ccccc3c2O)=Nc2ccccc21
activity change, negative = cytotoxicity: inactive
//
molecule: NNC(=O)CP(=O)(c1ccccc1)c1ccccc1
activity change, negative = cytotoxicity: inactive

Using known records, supply activity change, negative = cytotoxicity for NC(=O)NC1NC(=O)NC1=O (stereo unspecified)
inactive

Using known records, supply activity change, negative = cytotoxicity for `CC[N+](C)(CC)CCOC(=O)C1c2ccccc2Oc2ccccc21`
inactive

Using known records, supply activity change, negative = cytotoxicity for `O=C(O)Cn1c(C(=O)Nc2nc(-c3ccccc3Cl)cs2)cc2ccccc21`
inactive

Using known records, supply activity change, negative = cytotoxicity for `CC1(C)S[C@@H]2[C@H](N=CN3CCCCCC3)C(=O)N2[C@H]1C(=O)O`
inactive

Using known records, supply activity change, negative = cytotoxicity for CC(O)CCCCn1c(=O)c2c(ncn2C)n(C)c1=O (stereo unspecified)
inactive

Using known records, supply activity change, negative = cytotoxicity for CCCNC(C)C(=O)Nc1c(C)csc1C(=O)OC (stereo unspecified)
inactive

----------
Assay: Cell Viability - LYMP2-017 (AID 972);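 note: cells exposed to compound for 24 hours at 37 °C; % is set by controls: 0 for no effect and ±100 for the full control effect; nearly all actives have a fitted effect of over 55% in size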
Conditions: LYMP2-017 lymphoblastoid cell viability; series mostly up to 92.2 µM
Results filed as inconclusive are left out. Calls of active or inactive are those of the source. Calls follow the shape of the dose curve; as a rule, active = well fitted cell-killing curve with a large enough effect; inconclusive = small, poorly fitted or top-dose-only effect; inactive = flat fitted curve, though single readings scatter.
attribute-measured: outcome

Take a look at these entries with their results.
compound: CC(=O)Nc1ccc(C(=O)O)cc1
reported-value: inactive
//
compound: Nc1ccc(S(=O)(=O)c2ccc(N)cc2)cc1
reported-value: inactive
//
compound: O=C(O)CCCCC1CCSS1 (centres undefined)
reported-value: inactive
//
compound: CC(=O)NS(=O)(=O)c1ccc(N)cc1
reported-value: inactive
//
compound: C=CCNC(N)=S
reported-value: inactive

Using known records, supply outcome for `O=C1C(c2[nH]c3ccccc3c2O)=Nc2ccccc21`
inactive

Using known records, supply outcome for `Cc1c(N(C)C)c(=O)n(-c2ccccc2)n1C`
inactive

----------
Molecular target: Phospholipid hydroperoxide glutathione peroxidase GPX4 (Homo sapiens) (UniProt P36969)
Sequence (P36969 whole entry, looked up): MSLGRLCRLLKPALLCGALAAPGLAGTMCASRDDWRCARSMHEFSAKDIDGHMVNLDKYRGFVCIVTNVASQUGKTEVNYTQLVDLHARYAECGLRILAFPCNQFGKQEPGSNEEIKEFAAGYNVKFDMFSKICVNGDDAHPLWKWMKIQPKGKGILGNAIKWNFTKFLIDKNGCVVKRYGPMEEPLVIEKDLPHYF
Assay: Primary qHTS Assay for Inhibitors of Recombinant Selenoprotein Glutathione Peroxidase 4 (GPX4) (AID 1845192); note: nearly all actives have a fitted effect of over 65% in size
Details: recombinant GPX4, GR-coupled NADPH fluorescence, 15 min; series mostly up to 50 µM
Records with an inconclusive call do not appear. Active and inactive are the calls of the source. Calls come from the whole dose curve; as a rule, active = well fitted inhibition curve with a large enough effect; inconclusive = small, poorly fitted or top-dose-only effect; inactive = flat fitted curve, though single readings scatter.
Give one outcome, nothing more. List: True for active, False for inactive

// param item: `O=C(O)CCCc1ccccc1` ; yields the recorded call
False

// param item: `C[C@H]1COc2c(C3(N)CC3)c(F)cc3c(=O)c(C(=O)O)cn1c23` ; yields the recorded call
False

// param item: CCCCCCCCCCCCCCCCC(C(=O)O)C(O)(CC(=O)O)C(=O)O (centres undefined) ; yields the recorded call
True

// param item: `O=C(/C=C/c1ccccc1)OCc1ccccc1` ; yields the recorded call
False

----------
Test: qHTS of pediatric cancer cell lines to identify multiple opportunities for drug repurposing: Primary screen for BT-12 cells (AID 1347101);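 note: plate controls were DMSO for no effect and bortezomib positive control for full effect; nearly all actives have a fitted effect of over 25% in size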
Conditions: BT-12 viability, CellTiter-Glo luminescence, 48 h; series mostly up to 57.3 µM
Inconclusive results are not listed. Activity calls are given as the source filed them. The call rests on the fitted dose curve; in most records, active means well fitted cell-killing curve with a large enough effect; inconclusive means small, poorly fitted or top-dose-only effect; inactive means flat fitted curve, though single readings scatter.
attribute-measured: activity change, negative = cytotoxic

Take a look at these entries with their results.
compound: Cn1cc(C(=O)[C@@H]2CCc3nc[nH]c3C2)c2ccccc21
activity change, negative = cytotoxic: inactive
//
compound: O=C1C(c2[nH]c3ccccc3c2O)=Nc2ccccc21
activity change, negative = cytotoxic: inactive
//
compound: CNc1c2c(nn1C)CCCC2
activity change, negative = cytotoxic: inactive
//
compound: Cc1c(NC(=O)c2cccnc2)c(=O)n(-c2ccccc2)n1C
activity change, negative = cytotoxic: inactive
//
compound: CCCCCCCCCCCCCCCCCCO
activity change, negative = cytotoxic: inactive

Using known records, supply activity change, negative = cytotoxic for CC(CSC(=O)c1ccccc1)C(=O)N1C[C@@H](Sc2ccccc2)C[C@H]1C(=O)O (stereo partly specified)
inactive
